Reported inhibition at 1 µM values are given for each entry in this list.
- TARGET SYSTEM: human PTP1B (Homo sapiens, UniProt P18031)
- Construct: human PTP1B (amino acid residues 1-321); made in house; host or cells: E. coli BL21(DE3)
- Sequence (P18031 1-321): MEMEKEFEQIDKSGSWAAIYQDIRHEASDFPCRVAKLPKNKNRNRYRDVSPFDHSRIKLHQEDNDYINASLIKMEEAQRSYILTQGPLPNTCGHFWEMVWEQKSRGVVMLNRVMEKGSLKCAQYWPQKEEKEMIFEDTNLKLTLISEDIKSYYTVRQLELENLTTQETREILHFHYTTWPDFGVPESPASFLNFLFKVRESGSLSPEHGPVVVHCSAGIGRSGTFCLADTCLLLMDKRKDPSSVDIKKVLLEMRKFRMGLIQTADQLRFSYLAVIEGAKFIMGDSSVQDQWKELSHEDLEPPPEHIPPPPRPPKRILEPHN
- TEST: PTP1B assay, pNPP hydrolysis, assayed exactly as for PTP1
- Format: biochemical
- ASSAY CONTEXT: Conc 1 uM, Table 2, read-out: PTP1B Inhib PTP1B. % Inhib

COMPOUND: CCCCCNC(=O)C(Cc1ccc(OC(COO)COO)cc1)NC(=O)C(Cc1ccccc1)NC(=O)NC(C)(C)C (stereo not shown)
TARGET SYSTEM: human PTP1B (Homo sapiens, UniProt P18031)
inhibition at 1 µM [%]: 9
//
COMPOUND: CCCCCNC(=O)C(Cc1ccc(OCCOO)c(COO)c1)NC(=O)C(Cc1ccccc1)NC(=O)CCNS(C)(=O)=O (stereo not shown)
TARGET SYSTEM: human PTP1B (Homo sapiens, UniProt P18031)
inhibition at 1 µM [%]: 15
//
COMPOUND: CCCCCNC(=O)C(Cc1ccc(OC(COO)C(=O)O)cc1)C(=O)NCCC(=O)O (stereo not shown)
TARGET SYSTEM: human PTP1B (Homo sapiens, UniProt P18031)
inhibition at 1 µM [%]: 9
//
COMPOUND: CCCCCNC(=O)C(Cc1ccc(OC(COO)COO)cc1)NC(=O)C(CC(C)C)NC(=O)OC(C)(C)C (stereo not shown)
TARGET SYSTEM: human PTP1B (Homo sapiens, UniProt P18031)
inhibition at 1 µM [%]: 4
//
COMPOUND: CCCCCNC(=O)C(Cc1ccc(OC(COO)COO)cc1)NC(=O)C(Cc1ccccc1)NS(=O)OC (stereo not shown)
TARGET SYSTEM: human PTP1B (Homo sapiens, UniProt P18031)
inhibition at 1 µM [%]: 9
//
COMPOUND: CCCCCNC(=O)C(Cc1ccc(OC(COO)COO)cc1)NC(=O)N1CCN(C(=O)OC(C)(C)C)CC1 (stereo not shown)
TARGET SYSTEM: human PTP1B (Homo sapiens, UniProt P18031)
inhibition at 1 µM [%]: 19
//
COMPOUND: CCCCCNC(=O)C(Cc1ccc(OC(COO)COO)cc1)NC(=O)C(Cc1cccc2ccccc12)NC(=O)OC(C)(C)C (stereo not shown)
TARGET SYSTEM: human PTP1B (Homo sapiens, UniProt P18031)
inhibition at 1 µM [%]: 3
//
COMPOUND: CC(C)(C)OC(=O)N[C@@H](Cc1ccccc1)C(=O)N[C@@H](Cc1ccc(OCC(=O)O)c(C(=O)O)c1)C(=O)NCCCCc1ccccc1 [drawing 221]
TARGET SYSTEM: human PTP1B (Homo sapiens, UniProt P18031)
inhibition at 1 µM [%]: 64
//
COMPOUND: CCCCCNC(=O)[C@H](Cc1ccc(OC(F)C(=O)O)c(C(=O)O)c1)NC(=O)[C@H](Cc1ccccc1)NC(=O)OC(C)(C)C (stereo partly shown)
TARGET SYSTEM: human PTP1B (Homo sapiens, UniProt P18031)
inhibition at 1 µM [%]: 34
//
COMPOUND: CCCCCNC(=O)C(Cc1ccc(OC(COO)COO)cc1)NC(=O)C(Cc1ccccc1)NC(=O)OC(C)(C)C (stereo not shown)
TARGET SYSTEM: human PTP1B (Homo sapiens, UniProt P18031)
inhibition at 1 µM [%]: 7
//
COMPOUND: CCCCCNC(=O)C(Cc1ccc(OCCOO)c(COO)c1)NC(=O)N(Cc1ccccc1)Cc1ccccc1 (stereo not shown)
TARGET SYSTEM: human PTP1B (Homo sapiens, UniProt P18031)
inhibition at 1 µM [%]: 11
//
COMPOUND: CCCCCNC(=O)C(Cc1ccc(OCCOO)c(COO)c1)NC(=O)C(Cc1ccccc1)NC(=O)CCc1ccccc1 (stereo not shown)
TARGET SYSTEM: human PTP1B (Homo sapiens, UniProt P18031)
inhibition at 1 µM [%]: 22
//
COMPOUND: CCCCCNC(=O)C(Cc1ccc(OCCOO)c(COO)c1)NC(=O)C(Cc1ccc(O)cc1)NC(=O)OC(C)(C)C (stereo not shown)
TARGET SYSTEM: human PTP1B (Homo sapiens, UniProt P18031)
inhibition at 1 µM [%]: 32
//
COMPOUND: CCCCCNC(=O)[C@H](Cc1ccc(N(CC(=O)O)CC(=O)O)cc1)NC(=O)[C@H](Cc1ccccc1)NC(=O)OC(C)(C)C
TARGET SYSTEM: human PTP1B (Homo sapiens, UniProt P18031)
inhibition at 1 µM [%]: 3
//
COMPOUND: CCCCCNC(=O)C(Cc1ccc(OC(COO)COO)cc1)NC(=O)C(Cc1ccccc1)NS(=O)OCc1ccccc1 (stereo not shown)
TARGET SYSTEM: human PTP1B (Homo sapiens, UniProt P18031)
inhibition at 1 µM [%]: 4
//
COMPOUND: CCCCCNC(=O)C(Cc1ccc(OCCOO)c(COO)c1)NC(=O)CCc1ccccc1 (stereo not shown)
TARGET SYSTEM: human PTP1B (Homo sapiens, UniProt P18031)
inhibition at 1 µM [%]: 4
